STUDY SYSTEM: Cytochrome P450 3A4 (Homo sapiens, UniProt P08684)
Sequence (P08684 whole entry): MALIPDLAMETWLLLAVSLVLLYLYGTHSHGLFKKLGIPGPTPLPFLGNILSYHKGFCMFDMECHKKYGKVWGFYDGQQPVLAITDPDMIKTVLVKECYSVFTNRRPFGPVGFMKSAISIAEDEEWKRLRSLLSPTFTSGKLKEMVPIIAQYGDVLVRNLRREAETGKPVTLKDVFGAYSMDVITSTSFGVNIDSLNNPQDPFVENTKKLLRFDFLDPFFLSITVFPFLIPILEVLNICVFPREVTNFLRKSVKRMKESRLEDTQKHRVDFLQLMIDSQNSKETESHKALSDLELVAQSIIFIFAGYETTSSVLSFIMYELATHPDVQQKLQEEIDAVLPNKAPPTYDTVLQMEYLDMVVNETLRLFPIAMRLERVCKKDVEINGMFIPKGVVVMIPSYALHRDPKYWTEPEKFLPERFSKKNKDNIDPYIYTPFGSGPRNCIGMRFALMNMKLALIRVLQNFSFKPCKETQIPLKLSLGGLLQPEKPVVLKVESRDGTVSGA
APPLIED CONDITIONS: Potency
RESULT TYPE: AC50

Look over these answered cases.
{"COMPOUND": "COC1=C[C@H]2[C@H]3Cc4ccc(OC)c(O)c4[C@@]2(CCN3C)CC1=O", "AC50": "31.6 µM (inconclusive)"}
{"COMPOUND": "Oc1cc(Cl)ccc1Cl", "AC50": "31.6 µM (inconclusive)"}
{"COMPOUND": "Cc1c2ccccc2c(C)c2c1ccc1ccccc12", "AC50": "12.6 µM (inconclusive)"}
{"COMPOUND": "O=C1C=CC(=O)c2c(O)cccc21", "AC50": "39.8 µM (inconclusive)"}
{"COMPOUND": "CCCCc1nc2c(c3c1CC(C)OC3)CN(CCOc1ccccc1)CC2 (stereo not given)", "AC50": "3.16 µM (inconclusive)"}
{"COMPOUND": "COC(=O)C(C(=O)OC)C1O[C@@]23COCCC2(C)C3c2ccccc21 (stereo not given in full)", "AC50": "3.16 µM (inconclusive)"}
{"COMPOUND": "CC(C)(/N=N/C(C)(C)C(=N)N)C(=N)N", "AC50": "39.8 µM (inconclusive)"}
{"COMPOUND": "Cn1c(N)c(C(=O)COC(=O)c2cc(C3CC3)nc3ccccc23)c(=O)n(Cc2ccccc2)c1=O", "AC50": "15.8 µM (inconclusive)"}

Hi, could you look up AC50 for each item in my list?
1. CCOC(=O)OCC1OC(c2ccccc2)C=CC1Oc1cccc(N(C)C)c1 (stereo not given)
2. O=C(/C=C/c1ccccc1)c1ccc(O)cc1 [4'-HYDROXYCHALCONE]

["3.16 µM (inconclusive)", "39.8 µM (inconclusive)"]

---

This section lists AC50 readings for UniProt:P08684.

{"COMPOUND": "FC(F)(F)c1cnc(/C=C/Nc2ccccc2Cl)c(Cl)c1", "AC50": "31.6 µM (inconclusive)"}
{"COMPOUND": "Cc1sc(NC(=O)C2C3CCC(O3)C2C(=O)O)c(C(=O)OC(C)C)c1-c1ccc(Cl)cc1 (configuration not stated)", "AC50": "15.8 µM (inconclusive)"}
{"COMPOUND": "COC(=O)N1CCC2(CCCN(C(=O)Nc3ccc(OC)cc3)C2)CC1", "AC50": "25.1 µM (inconclusive)"}
{"COMPOUND": "COc1cccc([C@@H]2Oc3ccc(Br)cc3C(=O)[C@H]2O)c1", "AC50": "6.31 µM (inconclusive)"}
{"COMPOUND": "CCCC[P+](CCCC)(CCCC)Cc1ccc(NC(=O)[C@@H](Cc2ccc3ccccc3c2)N=C(NC2CCCCC2)NC2CCCCC2)cc1", "AC50": "25.1 µM (inconclusive)"}

Kindly give each listed record's AC50.
1. CCOC(=O)C1CCCN(c2ncnc3c2cnn3-c2ccc(Cl)cc2)C1 (configuration not stated)
2. CC(=O)Nc1ccc(N2C(=O)CSC2c2c(F)cccc2Cl)cc1 (configuration not stated)
3. CN=C(S)NNC(=O)c1sccc1OCc1ccc(C)cc1
4. Cc1ccc(NC(=O)Cn2cnc3c(cnn3C(C)(C)C)c2=O)cc1
5. CCN(CC)CCn1c(=S)[nH]c2cc3c(cc2c1=O)OCO3
6. c1ccc(Nc2nc(-c3ccoc3)nc3ccccc23)cc1

1: 25.1 µM (inconclusive); 2: 22.4 µM (inconclusive); 3: 15.8 µM (inconclusive); 4: 12.6 µM (inconclusive); 5: 14.1 µM (inconclusive); 6: 20 µM (inconclusive)

Give measured AC50 for every item shown.
1. Cc1cccc(C)c1NC(=O)C(c1ccccc1)N1CCC1=O (configuration not stated)
2. O=C(Nc1nc(-c2ccccc2)cs1)c1ccc(Br)o1
3. Oc1oc(-c2ccccc2)nc1/C=N/c1ccccc1

1. 25.1 µM (inconclusive)
2. 31.6 µM (inconclusive)
3. 25.1 µM (inconclusive)

For the 3 compounds below, give their AC50 values.
1. Cc1cc(C)c(S(=O)(=O)N2CCCCC2)c(C)c1N(C)S(=O)(=O)c1ccccc1
2. CCOC(=O)CSC1=C(C#N)C(c2sccc2C)CC(=O)N1 (configuration not stated)
3. CN(C)C(=O)c1ccc(-c2cncnc2-n2ccnc2)cc1

1: 1.12 µM (inconclusive); 2: 15.8 µM (inconclusive); 3: 10 µM (inconclusive)

---

STUDY SYSTEM: Prothrombin (Bos taurus, UniProt P00735)
EXPERIMENT: thrombin inhibition, dose response, biochemical, fluorescence polarization, uHTS hits (AID 602369)
Type: functional
The source made the active and inactive calls.
Log the outcome using a class from active, inactive

Check out these entries, answers already filled in.
{"STRUCTURE STRING": "COC(=O)c1c(-c2cccnc2)csc1NC(=O)c1ccc2c(c1)OCO2", "STUDY SYSTEM": "Prothrombin (Bos taurus, UniProt P00735)", "ASSIGNED CLASS": "active"}
{"STRUCTURE STRING": "CCN(CC)CCOC(=O)c1ccc(N/C=C(/C#N)c2nc(-c3ccc4c(c3)OCO4)cs2)cc1", "STUDY SYSTEM": "Prothrombin (Bos taurus, UniProt P00735)", "ASSIGNED CLASS": "active"}
{"STRUCTURE STRING": "COc1cc(/C=C2\\SC(c3ccc(C)cc3)=NC2=O)cc(OC)c1O", "STUDY SYSTEM": "Prothrombin (Bos taurus, UniProt P00735)", "ASSIGNED CLASS": "active"}

Then this molecule:
What did the test return for COc1ccccc1-c1cc(C(=O)Nc2cc(C)nn2-c2ccccc2)no1 ?
inactive

---

I'd appreciate it if you could supply AC50 values for the items below.
STUDY SYSTEM: Cytochrome P450 1A2 (Homo sapiens, UniProt P05177);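 further: PubChem cytochrome P450 panel assay, CYP1A2 panel member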
Sequence (P05177 whole entry): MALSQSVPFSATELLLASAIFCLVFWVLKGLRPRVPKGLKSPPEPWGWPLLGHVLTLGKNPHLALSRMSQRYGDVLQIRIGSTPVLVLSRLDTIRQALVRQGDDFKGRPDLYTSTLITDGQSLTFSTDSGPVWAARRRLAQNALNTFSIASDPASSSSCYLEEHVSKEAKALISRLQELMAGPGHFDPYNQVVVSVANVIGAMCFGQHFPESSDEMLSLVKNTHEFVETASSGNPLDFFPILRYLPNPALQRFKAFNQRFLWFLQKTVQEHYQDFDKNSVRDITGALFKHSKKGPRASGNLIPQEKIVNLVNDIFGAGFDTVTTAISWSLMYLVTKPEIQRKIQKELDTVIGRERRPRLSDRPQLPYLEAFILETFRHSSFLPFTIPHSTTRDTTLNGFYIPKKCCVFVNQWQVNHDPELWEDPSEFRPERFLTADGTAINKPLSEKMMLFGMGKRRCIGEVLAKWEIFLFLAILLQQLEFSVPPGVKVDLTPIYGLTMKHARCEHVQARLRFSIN

{"COMPOUND": "CCOC(=O)N1CCN(C(=O)CCn2nc(-c3ccccc3)ccc2=O)CC1", "STUDY SYSTEM": "Cytochrome P450 1A2 (Homo sapiens, UniProt P05177)", "AC50": "15.8 µM (inconclusive)"}
{"COMPOUND": "CCCCCNCc1cccc(Br)c1", "STUDY SYSTEM": "Cytochrome P450 1A2 (Homo sapiens, UniProt P05177)", "AC50": "15.8 µM (inconclusive)"}
{"COMPOUND": "Cc1ncc2c(c1O)COP(=O)(O)OC2", "STUDY SYSTEM": "Cytochrome P450 1A2 (Homo sapiens, UniProt P05177)", "AC50": "31.6 µM (inconclusive)"}

Can you give me AC50 for all of these, one by one?
1. CCn1c(N2CCN(C(=O)Nc3ccc(F)cc3)CC2)nc2ccccc21
2. COC(=O)N1CCC2(CCCN(C(=O)Nc3ccc(OC)cc3)C2)CC1
3. Cn1cnc([N+](=O)[O-])c1Sc1nc(N)nc2c1ncn2[C@H]1C[C@H](O)[C@@H](CO)O1

20 µM (inconclusive)
20 µM (inconclusive)
6.31 µM (inconclusive)

---

Please provide measured IC50 for the entries that follow.
STUDY SYSTEM: Voltage-gated N-type calcium channel alpha-1B subunit/Amyloid beta A4 precursor protein-binding family A member 1 (Homo sapiens, UniProt Q00975+Q02410)
Sequence (Q00975 whole entry): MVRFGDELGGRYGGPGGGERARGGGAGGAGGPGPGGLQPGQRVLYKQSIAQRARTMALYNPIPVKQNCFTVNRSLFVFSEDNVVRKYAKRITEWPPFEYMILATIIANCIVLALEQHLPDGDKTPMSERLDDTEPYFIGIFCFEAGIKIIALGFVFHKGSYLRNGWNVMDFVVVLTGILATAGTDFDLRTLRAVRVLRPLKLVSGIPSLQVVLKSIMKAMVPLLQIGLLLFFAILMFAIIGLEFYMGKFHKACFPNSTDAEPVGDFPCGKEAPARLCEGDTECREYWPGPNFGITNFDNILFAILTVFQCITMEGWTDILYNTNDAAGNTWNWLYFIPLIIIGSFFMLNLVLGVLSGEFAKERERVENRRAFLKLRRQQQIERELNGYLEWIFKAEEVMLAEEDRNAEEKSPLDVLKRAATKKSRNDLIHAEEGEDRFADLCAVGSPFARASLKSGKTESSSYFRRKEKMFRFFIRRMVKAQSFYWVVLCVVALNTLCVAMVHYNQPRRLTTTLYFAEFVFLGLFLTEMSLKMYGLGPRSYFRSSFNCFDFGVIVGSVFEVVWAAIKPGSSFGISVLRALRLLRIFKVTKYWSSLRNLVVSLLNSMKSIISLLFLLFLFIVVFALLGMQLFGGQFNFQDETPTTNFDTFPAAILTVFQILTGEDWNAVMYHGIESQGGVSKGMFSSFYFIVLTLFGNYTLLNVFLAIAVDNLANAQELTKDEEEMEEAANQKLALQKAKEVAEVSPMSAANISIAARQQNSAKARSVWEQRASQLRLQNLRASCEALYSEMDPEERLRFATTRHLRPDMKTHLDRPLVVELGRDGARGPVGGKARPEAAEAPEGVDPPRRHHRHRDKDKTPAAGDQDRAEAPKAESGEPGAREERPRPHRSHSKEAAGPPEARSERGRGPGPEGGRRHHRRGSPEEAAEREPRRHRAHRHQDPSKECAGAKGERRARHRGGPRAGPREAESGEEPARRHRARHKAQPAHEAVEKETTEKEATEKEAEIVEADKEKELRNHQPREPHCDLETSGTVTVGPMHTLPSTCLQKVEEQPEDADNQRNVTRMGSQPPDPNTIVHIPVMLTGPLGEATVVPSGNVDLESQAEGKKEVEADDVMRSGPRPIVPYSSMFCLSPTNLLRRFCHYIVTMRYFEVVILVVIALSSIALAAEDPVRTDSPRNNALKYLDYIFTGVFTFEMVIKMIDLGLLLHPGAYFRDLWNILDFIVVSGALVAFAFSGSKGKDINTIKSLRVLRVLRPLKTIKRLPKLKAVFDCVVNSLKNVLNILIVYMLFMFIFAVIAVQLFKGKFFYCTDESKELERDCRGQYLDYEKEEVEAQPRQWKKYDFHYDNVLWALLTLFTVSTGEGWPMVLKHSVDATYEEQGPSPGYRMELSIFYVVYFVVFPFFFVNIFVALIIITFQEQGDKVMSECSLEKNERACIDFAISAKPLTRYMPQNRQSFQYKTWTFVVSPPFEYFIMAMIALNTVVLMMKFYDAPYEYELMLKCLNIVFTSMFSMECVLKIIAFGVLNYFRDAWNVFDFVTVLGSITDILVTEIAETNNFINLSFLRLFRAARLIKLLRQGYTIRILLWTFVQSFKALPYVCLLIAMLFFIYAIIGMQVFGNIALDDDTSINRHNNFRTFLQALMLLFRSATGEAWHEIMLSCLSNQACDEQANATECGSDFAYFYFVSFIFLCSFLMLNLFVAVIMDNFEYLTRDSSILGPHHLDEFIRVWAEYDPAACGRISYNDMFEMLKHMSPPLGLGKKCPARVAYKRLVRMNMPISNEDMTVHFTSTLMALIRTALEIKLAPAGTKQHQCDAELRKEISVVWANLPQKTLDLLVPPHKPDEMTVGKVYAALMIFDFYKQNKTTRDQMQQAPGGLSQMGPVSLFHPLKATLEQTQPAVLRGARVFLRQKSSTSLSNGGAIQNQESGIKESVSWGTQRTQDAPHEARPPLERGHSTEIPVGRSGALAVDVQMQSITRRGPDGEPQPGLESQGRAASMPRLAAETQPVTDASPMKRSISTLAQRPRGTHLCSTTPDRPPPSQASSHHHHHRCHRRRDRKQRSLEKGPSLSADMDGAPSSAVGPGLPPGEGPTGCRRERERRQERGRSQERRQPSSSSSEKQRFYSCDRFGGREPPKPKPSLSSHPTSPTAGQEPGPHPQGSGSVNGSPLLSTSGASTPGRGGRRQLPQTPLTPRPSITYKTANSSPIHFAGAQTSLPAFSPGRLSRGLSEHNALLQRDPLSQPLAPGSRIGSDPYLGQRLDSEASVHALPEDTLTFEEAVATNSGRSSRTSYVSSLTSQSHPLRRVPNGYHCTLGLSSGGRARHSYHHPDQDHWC
Sequence (Q02410 whole entry): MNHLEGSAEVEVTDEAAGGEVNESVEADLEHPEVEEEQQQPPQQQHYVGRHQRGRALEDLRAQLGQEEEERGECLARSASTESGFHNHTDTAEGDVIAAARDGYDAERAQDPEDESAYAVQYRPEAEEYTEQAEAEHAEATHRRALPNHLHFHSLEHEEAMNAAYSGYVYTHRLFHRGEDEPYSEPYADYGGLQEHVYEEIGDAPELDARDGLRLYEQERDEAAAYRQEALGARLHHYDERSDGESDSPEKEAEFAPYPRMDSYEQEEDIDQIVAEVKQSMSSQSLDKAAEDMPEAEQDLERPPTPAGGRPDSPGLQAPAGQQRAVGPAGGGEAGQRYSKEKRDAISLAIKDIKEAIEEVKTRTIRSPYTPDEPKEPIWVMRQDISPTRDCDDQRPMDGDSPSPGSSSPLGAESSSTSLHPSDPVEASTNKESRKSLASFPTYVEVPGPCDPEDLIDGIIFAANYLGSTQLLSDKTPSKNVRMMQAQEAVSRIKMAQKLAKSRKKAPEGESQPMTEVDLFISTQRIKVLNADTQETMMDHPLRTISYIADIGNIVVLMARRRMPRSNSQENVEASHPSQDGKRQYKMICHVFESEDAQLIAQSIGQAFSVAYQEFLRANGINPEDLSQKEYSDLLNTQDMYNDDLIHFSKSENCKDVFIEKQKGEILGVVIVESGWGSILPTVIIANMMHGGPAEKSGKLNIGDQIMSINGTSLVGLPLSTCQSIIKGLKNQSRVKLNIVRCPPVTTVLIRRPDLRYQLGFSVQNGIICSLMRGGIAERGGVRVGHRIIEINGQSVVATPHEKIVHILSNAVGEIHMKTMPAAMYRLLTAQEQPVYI
Format: protein assay
The source made the active and inactive calls.

Here is how some molecules turned out for IC50.
{"MOLECULE": "COc1ccc(N2CSC3=C(C#N)C(c4cc(OC)c(OC)cc4OC)CC(=O)N3C2)c(OC)c1 (stereo unspecified)", "RESULT": "11.3 µM (active)"}
{"MOLECULE": "C=CCOc1ccc(/C=C2\\SC(=S)N(N3CCOCC3)C2=O)cc1", "RESULT": "4.43 µM (active)"}
{"MOLECULE": "CCOC(=O)c1ccc(/N=c2\\ssnc2Cl)cc1", "RESULT": "11.5 µM (active)"}
{"MOLECULE": "Cc1cc(Cl)ccc1/N=c1\\ssnc1Cl", "RESULT": "15.4 µM (active)"}
{"MOLECULE": "CN(C(=O)COC(=O)c1cc(-c2ccco2)nc2ccccc12)C1CCS(=O)(=O)C1 (stereo unspecified)", "RESULT": "28.8 µM (active)"}

Now for the molecule whose IC50 we want.
So what's the measured IC50 for this one? CCOC(=O)c1cc(-c2ccc(N3CCOCC3)cc2)nn1-c1ccccc1C(=O)O
5.98 µM (active)

---

Record form. Attribute: AC50. Fill in for each entry.
STUDY SYSTEM: DNA repair and recombination protein RAD54-like (Homo sapiens, UniProt Q92698)
Sequence (Q92698 whole entry): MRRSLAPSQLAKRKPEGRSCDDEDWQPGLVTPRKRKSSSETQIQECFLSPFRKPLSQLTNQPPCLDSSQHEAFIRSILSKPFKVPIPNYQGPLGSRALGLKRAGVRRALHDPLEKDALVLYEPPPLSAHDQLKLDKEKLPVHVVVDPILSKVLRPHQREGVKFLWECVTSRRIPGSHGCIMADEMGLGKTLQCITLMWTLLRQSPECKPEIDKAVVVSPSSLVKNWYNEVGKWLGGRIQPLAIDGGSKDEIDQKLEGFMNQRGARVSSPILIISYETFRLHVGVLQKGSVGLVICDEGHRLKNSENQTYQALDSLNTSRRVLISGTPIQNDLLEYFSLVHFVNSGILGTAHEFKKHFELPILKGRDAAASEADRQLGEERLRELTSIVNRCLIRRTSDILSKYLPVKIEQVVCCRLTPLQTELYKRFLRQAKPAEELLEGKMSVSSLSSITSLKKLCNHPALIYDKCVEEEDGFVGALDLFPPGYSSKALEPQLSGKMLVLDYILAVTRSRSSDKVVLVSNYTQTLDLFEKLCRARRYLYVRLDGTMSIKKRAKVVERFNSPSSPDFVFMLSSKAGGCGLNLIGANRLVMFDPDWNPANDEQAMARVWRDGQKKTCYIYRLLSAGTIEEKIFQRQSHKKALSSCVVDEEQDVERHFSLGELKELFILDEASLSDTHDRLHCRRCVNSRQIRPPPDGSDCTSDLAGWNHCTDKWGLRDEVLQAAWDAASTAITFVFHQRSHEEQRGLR
EXPERIMENT: inhibitors of human RAD54 branch migration, confirmation, biochemical, fluorescence, cherry-picked samples, dose series (AID 651657)
Format: functional
Activity calls are given as the source filed them.

Sample records with AC50:
{"STRUCTURE STRING": "CCN(CC)CCCNc1nc2ccccc2c2nc(-c3ccncc3)nn12", "RESULT TYPE": "AC50", "RESULT": "6.19 µM (active)"}
{"STRUCTURE STRING": "COc1cc(C(=O)NC2CCN(C)CC2)ccc1Nc1ncc2c(n1)N(C1CCCCC1)CCC(=O)N2C", "RESULT TYPE": "AC50", "RESULT": "12 µM (active)"}

Please state AC50 for every molecule in the list that follows.
1. COc1ccc(-c2cc(NC=O)c3ncc(-c4cccc(C(=O)NCCN(C)C)c4)n3c2)cn1
2. CCN1CCN(CCCNC(=O)c2cc3c(=O)oc4ccc(C)cc4c3s2)CC1
3. COc1ccc2cc3cc(C(=O)NCCCN4CCOCC4)oc3nc2c1

["16.6 µM (active)", "36.3 µM (active)", "36.7 µM (active)"]

Recorded AC50 for c1ccc(-c2cc(NCCN3CCCCC3)c3ccccc3n2)cc1 , please?
4.86 µM (active)
